Measured values drawn from ChEMBL document CHEMBL2321793 for this set.

Task for the reader: assign each of the following compounds its reported MIC.
tested on: Aspergillus fumigatus; experiment: Antifungal activity against Aspergillus fumigatus ASFU7 after 48 hrs by M38 method; type: functional; conditions: ASFU7, 48 h
Write down the numeric answer in µg/mL and omit the unit.

Request the reported MIC associated with CCC(C)n1ncn(-c2ccc(N3CCN(c4ccc(OCC5COC(Cn6cncn6)(c6ccc(Cl)cc6Cl)O5)cc4)CC3)cc2)c1=O (stereo not given)
0.42

Given the compound C[C@@H](c1ncncc1F)[C@](O)(Cn1cncn1)c1ccc(F)cc1F , what is its reported MIC?
0.15

# MIC lookup, item C[C@@H](n1cnc2cc3scnc3cc2c1=O)[C@](O)(Cn1cncn1)c1ccc(F)cc1F
0.28

Give its MIC value. Item: C[C@@H](n1cnc2cc(Cl)ccc2c1=O)[C@](O)(Cn1cncn1)c1ccc(F)cc1F
0.23

###

test system: Candida parapsilosis; assay: Antifungal activity against acquired-resistant Candida parapsilosis CAPA1 after 24 hrs by spectrofluorometric analysis; format: functional; conditions: Lodderomyces parapsilosis, CAPA1, 24 h
Readout Type: MIC (µg/mL)
Entry rule: numbers only, all in µg/mL.

Quick one: MIC for C[C@@H](n1cnc2cc(Cl)ccc2c1=O)[C@](O)(Cn1cncn1)c1ccc(F)cc1F ?
0.018

# get_value(readout='MIC', item= C[C@@H](n1cnc2cc3scnc3cc2c1=O)[C@](O)(Cn1cncn1)c1ccc(F)cc1F )
0.013

Given the entry C[C@@H](n1cnc2ccc3ncsc3c2c1=O)[C@](O)(Cn1cncn1)c1ccc(F)cc1F , report its measured MIC.
0.006

Item under review: C[C@@H](c1ncncc1F)[C@](O)(Cn1cncn1)c1ccc(F)cc1F . Reported MIC?
0.925

###

tested on: Aspergillus fumigatus; assay: Antifungal activity against Aspergillus fumigatus ASFU20 after 48 hrs by M38 method; format: functional; conditions: ASFU20, 48 h
Readout Type: MIC (µg/mL)
Lab book: enter the figure in µg/mL, no units written.

Requested read-out MIC, target or system Aspergillus fumigatus, entry C[C@@H](n1cnc2cc(Cl)ccc2c1=O)[C@](O)(Cn1cncn1)c1ccc(F)cc1F
1.2

Return MIC measured with Aspergillus fumigatus given this compound: C[C@@H](n1cnc2cc3scnc3cc2c1=O)[C@](O)(Cn1cncn1)c1ccc(F)cc1F
4.5

###

system: Candida albicans; assay: Antifungal activity against fluconazole-resistant Candida albicans DSY735 after 24 hrs by spectrofluorometric analysis; type: functional; settings: DSY735, 24 h
Labelling field: enter condition met if recorded MIC is less than 0.1 µg/mL. Enter condition not met if it equals or exceeds that cut-off.

Confirm or reject: MIC of OC(Cn1cncn1)(Cn1cncn1)c1ccc(F)cc1F lies strictly below 0.1 µg/mL
condition not met

Hi there! Is MIC for C[C@@H](n1cnc2ccc3ncsc3c2c1=O)[C@](O)(Cn1cncn1)c1ccc(F)cc1F below 0.1 µg/mL, do you know?
condition not met

Take the molecule C[C@@H](n1cnc2cc3scnc3cc2c1=O)[C@](O)(Cn1cncn1)c1ccc(F)cc1F and say whether its MIC is less than 0.1 µg/mL.
condition not met

Does this molecule meet the criterion MIC < 0.1 µg/mL? C[C@@H](n1cnc2cc(Cl)ccc2c1=O)[C@](O)(Cn1cncn1)c1ccc(F)cc1F
condition met

###

target: Lanosterol 14-alpha demethylase (Candida albicans (strain SC5314 / ATCC MYA-2876) (Yeast), UniProt P10613); experiment: Inhibition of CYP51 in fluconazole-susceptible Candida albicans CAAL93 assessed as 14-methyfecosterol level at 22 ng/mL after 2 hrs; set-up: scale not given: the % may be the effect or the level left
Sequence (P10613 whole entry): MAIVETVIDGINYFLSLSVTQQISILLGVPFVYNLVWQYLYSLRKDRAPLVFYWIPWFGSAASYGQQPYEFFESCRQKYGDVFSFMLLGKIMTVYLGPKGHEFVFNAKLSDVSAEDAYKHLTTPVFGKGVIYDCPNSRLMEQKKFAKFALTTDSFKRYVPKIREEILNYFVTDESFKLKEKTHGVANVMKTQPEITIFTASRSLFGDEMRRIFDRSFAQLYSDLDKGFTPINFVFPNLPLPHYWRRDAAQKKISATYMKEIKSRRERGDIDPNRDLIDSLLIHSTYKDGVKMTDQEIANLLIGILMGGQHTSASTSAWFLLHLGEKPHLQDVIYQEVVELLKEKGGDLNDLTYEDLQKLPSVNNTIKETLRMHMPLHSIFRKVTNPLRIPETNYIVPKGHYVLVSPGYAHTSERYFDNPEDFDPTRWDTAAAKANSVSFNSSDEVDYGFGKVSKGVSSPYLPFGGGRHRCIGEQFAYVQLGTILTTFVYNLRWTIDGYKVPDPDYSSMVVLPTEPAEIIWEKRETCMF
Readout Type: Activity (%)
The answer is to be given in %; state only the numeric part.

Entry C[C@@H](n1cnc2cc3scnc3cc2c1=O)[C@](O)(Cn1cncn1)c1ccc(F)cc1F has what Activity?
11.4
